Assay: Pharmacokinetics of aconitine in plasma after oral administration
Format: in vivo
Conditions: male, Sprague-Dawley, rat, 1 mg/kg, t1/2z, Group E: aconitine at 1 mg/kg + glycyrrhetinic acid at 10 mg/kg oral
observation_type: half-life

In: Consider the compound CCN1C[C@]2(COC)[C@H](O)C[C@H](OC)[C@@]34[C@@H]5C[C@@]6(O)[C@H](OC(=O)c7ccccc7)[C@@H]5[C@@](OC(C)=O)([C@@H]([C@H](OC)[C@H]23)[C@@H]14)[C@@H](O)[C@@H]6OC . State its measured half-life.
Out: 114 min

* * *

Assay: Pharmacokinetics of aconitine in plasma after oral administration
Format: in vivo
Details: male, Sprague-Dawley, rat, 1 mg/kg, t1/2z
observation_type: half-life (h)
Answer in h, number only, no unit symbol.

In: Consider the compound CCN1C[C@]2(COC)[C@H](O)C[C@H](OC)[C@@]34[C@@H]5C[C@@]6(O)[C@H](OC(=O)c7ccccc7)[C@@H]5[C@@](OC(C)=O)([C@@H]([C@H](OC)[C@H]23)[C@@H]14)[C@@H](O)[C@@H]6OC [Aconitine, aconitine] . State its measured half-life.
Out: 2.19

* * *

Experiment: Pharmacokinetics of aconitine in plasma after oral administration
Type: in vivo
Details: male, Sprague-Dawley, rat, 1 mg/kg, Cmax, Group B: aconitine at 1 mg/kg + liquiritin at 10 mg/kg oral
observation_type: Cmax (ng/mL)
Answer in ng/mL, number only, no unit symbol.

In: Consider the molecule CCN1C[C@]2(COC)[C@H](O)C[C@H](OC)[C@@]34[C@@H]5C[C@@]6(O)[C@H](OC(=O)c7ccccc7)[C@@H]5[C@@](OC(C)=O)([C@@H]([C@H](OC)[C@H]23)[C@@H]14)[C@@H](O)[C@@H]6OC [Aconitine, aconitine] . State its measured Cmax.
Out: 5.77

* * *

Assay: Pharmacokinetics of aconitine in plasma after oral administration
Assay type: in vivo
Conditions: male, Sprague-Dawley, rat, 1 mg/kg, AUC(0-∞), Group A: aconitine at 1 mg/kg oral, alone
observation_type: AUC(0-inf) (ng·h/mL)
Answer in ng·h/mL, number only, no unit symbol.

In: Consider the compound CCN1C[C@]2(COC)[C@H](O)C[C@H](OC)[C@@]34[C@@H]5C[C@@]6(O)[C@H](OC(=O)c7ccccc7)[C@@H]5[C@@](OC(C)=O)([C@@H]([C@H](OC)[C@H]23)[C@@H]14)[C@@H](O)[C@@H]6OC [Aconitine, aconitine] . State its measured AUC(0-inf).
Out: 29.1

* * *

Assay: Pharmacokinetics of aconitine in plasma after oral administration
Type: in vivo
Conditions: male, Sprague-Dawley, rat, 1 mg/kg, Tmax, Group B: aconitine at 1 mg/kg + liquiritin at 10 mg/kg oral
observation_type: Tmax

In: Consider the molecule CCN1C[C@]2(COC)[C@H](O)C[C@H](OC)[C@@]34[C@@H]5C[C@@]6(O)[C@H](OC(=O)c7ccccc7)[C@@H]5[C@@](OC(C)=O)([C@@H]([C@H](OC)[C@H]23)[C@@H]14)[C@@H](O)[C@@H]6OC . State its measured Tmax.
Out: 1.67 h

* * *

Assay: Pharmacokinetics of aconitine in plasma after oral administration
Assay type: in vivo
Conditions: male, Sprague-Dawley, rat, 1 mg/kg, AUC(0-∞), Group B: aconitine at 1 mg/kg + liquiritin at 10 mg/kg oral
observation_type: AUC(0-inf)
Provide the measurement as a number trailed by its unit.

In: Consider the compound CCN1C[C@]2(COC)[C@H](O)C[C@H](OC)[C@@]34[C@@H]5C[C@@]6(O)[C@H](OC(=O)c7ccccc7)[C@@H]5[C@@](OC(C)=O)([C@@H]([C@H](OC)[C@H]23)[C@@H]14)[C@@H](O)[C@@H]6OC [Aconitine, aconitine] . State its measured AUC(0-inf).
Out: 31.9 ng·h/mL

* * *

Test: Pharmacokinetics of aconitine in plasma after oral administration
Type: in vivo
Conditions: male, Sprague-Dawley, rat, 1 mg/kg, t1/2z, Group A: aconitine at 1 mg/kg oral, alone
observation_type: half-life (h)
Answer in h, number only, no unit symbol.

In: Consider the compound CCN1C[C@]2(COC)[C@H](O)C[C@H](OC)[C@@]34[C@@H]5C[C@@]6(O)[C@H](OC(=O)c7ccccc7)[C@@H]5[C@@](OC(C)=O)([C@@H]([C@H](OC)[C@H]23)[C@@H]14)[C@@H](O)[C@@H]6OC [Aconitine, aconitine] . State its measured half-life.
Out: 3.87

* * *

Test: Pharmacokinetics of aconitine in plasma after oral administration
Format: in vivo
Details: male, Sprague-Dawley, rat, 1 mg/kg, AUC(0-t), Group D: aconitine at 1 mg/kg + glycyrrhizic acid at 10 mg/kg oral
observation_type: AUC(0-t)

In: Consider the compound CCN1C[C@]2(COC)[C@H](O)C[C@H](OC)[C@@]34[C@@H]5C[C@@]6(O)[C@H](OC(=O)c7ccccc7)[C@@H]5[C@@](OC(C)=O)([C@@H]([C@H](OC)[C@H]23)[C@@H]14)[C@@H](O)[C@@H]6OC [Aconitine, aconitine] . State its measured AUC(0-t).
Out: 0.0291 µg·h/mL

* * *

Test: Pharmacokinetics of aconitine in plasma after oral administration
Type: in vivo
Conditions: male, Sprague-Dawley, rat, 1 mg/kg, Tmax, Group A: aconitine at 1 mg/kg oral, alone
observation_type: Tmax (h)
Answer in h, number only, no unit symbol.

In: Consider the molecule CCN1C[C@]2(COC)[C@H](O)C[C@H](OC)[C@@]34[C@@H]5C[C@@]6(O)[C@H](OC(=O)c7ccccc7)[C@@H]5[C@@](OC(C)=O)([C@@H]([C@H](OC)[C@H]23)[C@@H]14)[C@@H](O)[C@@H]6OC . State its measured Tmax.
Out: 1.08

* * *

Test: Pharmacokinetics of aconitine in plasma after oral administration
Type: in vivo
Settings: male, Sprague-Dawley, rat, 1 mg/kg, Tmax, Group D: aconitine at 1 mg/kg + glycyrrhizic acid at 10 mg/kg oral
observation_type: Tmax (h)
Answer in h, number only, no unit symbol.

In: Consider the molecule CCN1C[C@]2(COC)[C@H](O)C[C@H](OC)[C@@]34[C@@H]5C[C@@]6(O)[C@H](OC(=O)c7ccccc7)[C@@H]5[C@@](OC(C)=O)([C@@H]([C@H](OC)[C@H]23)[C@@H]14)[C@@H](O)[C@@H]6OC . State its measured Tmax.
Out: 1.42

* * *

Assay: Pharmacokinetics of aconitine in plasma after oral administration
Type: in vivo
Settings: male, Sprague-Dawley, rat, 1 mg/kg, AUC(0-∞), Group E: aconitine at 1 mg/kg + glycyrrhetinic acid at 10 mg/kg oral
observation_type: AUC(0-inf) (ng·h/mL)
Answer in ng·h/mL, number only, no unit symbol.

In: Consider the compound CCN1C[C@]2(COC)[C@H](O)C[C@H](OC)[C@@]34[C@@H]5C[C@@]6(O)[C@H](OC(=O)c7ccccc7)[C@@H]5[C@@](OC(C)=O)([C@@H]([C@H](OC)[C@H]23)[C@@H]14)[C@@H](O)[C@@H]6OC [Aconitine, aconitine] . State its measured AUC(0-inf).
Out: 20.7

* * *

Assay: Pharmacokinetics of aconitine in plasma after oral administration
Assay type: in vivo
Conditions: male, Sprague-Dawley, rat, 1 mg/kg, Cmax, Group E: aconitine at 1 mg/kg + glycyrrhetinic acid at 10 mg/kg oral
observation_type: Cmax (ng/mL)
Answer in ng/mL, number only, no unit symbol.

In: Consider the molecule CCN1C[C@]2(COC)[C@H](O)C[C@H](OC)[C@@]34[C@@H]5C[C@@]6(O)[C@H](OC(=O)c7ccccc7)[C@@H]5[C@@](OC(C)=O)([C@@H]([C@H](OC)[C@H]23)[C@@H]14)[C@@H](O)[C@@H]6OC . State its measured Cmax.
Out: 5.88

* * *

Test: Pharmacokinetics of aconitine in plasma after oral administration
Type: in vivo
Conditions: male, Sprague-Dawley, rat, 1 mg/kg, Cmax, Group D: aconitine at 1 mg/kg + glycyrrhizic acid at 10 mg/kg oral
observation_type: Cmax (ng/mL)
Answer in ng/mL, number only, no unit symbol.

In: Consider the compound CCN1C[C@]2(COC)[C@H](O)C[C@H](OC)[C@@]34[C@@H]5C[C@@]6(O)[C@H](OC(=O)c7ccccc7)[C@@H]5[C@@](OC(C)=O)([C@@H]([C@H](OC)[C@H]23)[C@@H]14)[C@@H](O)[C@@H]6OC . State its measured Cmax.
Out: 5.73

* * *

Experiment: Pharmacokinetics of aconitine in plasma after oral administration
Assay type: in vivo
Conditions: male, Sprague-Dawley, rat, 1 mg/kg, t1/2z, Group D: aconitine at 1 mg/kg + glycyrrhizic acid at 10 mg/kg oral
observation_type: half-life (min)
Answer in min, number only, no unit symbol.

In: Consider the molecule CCN1C[C@]2(COC)[C@H](O)C[C@H](OC)[C@@]34[C@@H]5C[C@@]6(O)[C@H](OC(=O)c7ccccc7)[C@@H]5[C@@](OC(C)=O)([C@@H]([C@H](OC)[C@H]23)[C@@H]14)[C@@H](O)[C@@H]6OC . State its measured half-life.
Out: 209
